Target: recombinant human ACC1 (rhACC1) (Homo sapiens, UniProt Q13085, DEL44-44)
Construct: recombinant baculovirus containing full length human ACC1 cDNA
Test: recombinant hACC1 Transcreener assay (direct inhibition of ACC1 activity)
Details: Transcreener ADP detection FP assay, 50 μM ATP, 30 μM acetyl-CoA, 120 min at 25° C.
Please provide measured IC50 for the entries that follow.
One number for each entry, in nM.

Guide cases for IC50, answers given:
>  <COMPOUND>
CC(C)(C)n1ncc2c1C(=O)CC1(CCN(C(=O)c3cc4cnccc4[nH]3)CC1)C2 [Example 11A-51]

>  <ASSAY ENDPOINT>
IC50

>  <ENDPOINT VALUE>
110

$$$$
>  <COMPOUND>
CC(C)n1ncc2c1C(=O)CC1(CCN(C(=O)c3cc(-c4cccnc4)[nH]n3)CC1)C2 [Example 11A-62]

>  <ASSAY ENDPOINT>
IC50

>  <ENDPOINT VALUE>
338

$$$$
>  <COMPOUND>
CC(C)n1ncc2c1C(=O)CC1(CCN(C(=O)c3ccc4[nH]ncc4c3)CC1)C2 [Example 10A-1]

>  <ASSAY ENDPOINT>
IC50

>  <ENDPOINT VALUE>
43.8

$$$$

// IC50 value for CC(C)n1ncc2c1C(=O)CC1(CCN(C(=O)c3ccc4c(=O)[nH]ccc4c3)CC1)C2 [Example 2A-14] : 172

The reported measurements were obtained from patent US9139587B2.
